# TESTED SYSTEM: human LAT2 (Homo sapiens, UniProt Q9UHI5)
# Construct: having full-length cDNA of human LAT1 or LAT2 inserted under a promoter of CMV
# Sequence (Q9UHI5 whole entry): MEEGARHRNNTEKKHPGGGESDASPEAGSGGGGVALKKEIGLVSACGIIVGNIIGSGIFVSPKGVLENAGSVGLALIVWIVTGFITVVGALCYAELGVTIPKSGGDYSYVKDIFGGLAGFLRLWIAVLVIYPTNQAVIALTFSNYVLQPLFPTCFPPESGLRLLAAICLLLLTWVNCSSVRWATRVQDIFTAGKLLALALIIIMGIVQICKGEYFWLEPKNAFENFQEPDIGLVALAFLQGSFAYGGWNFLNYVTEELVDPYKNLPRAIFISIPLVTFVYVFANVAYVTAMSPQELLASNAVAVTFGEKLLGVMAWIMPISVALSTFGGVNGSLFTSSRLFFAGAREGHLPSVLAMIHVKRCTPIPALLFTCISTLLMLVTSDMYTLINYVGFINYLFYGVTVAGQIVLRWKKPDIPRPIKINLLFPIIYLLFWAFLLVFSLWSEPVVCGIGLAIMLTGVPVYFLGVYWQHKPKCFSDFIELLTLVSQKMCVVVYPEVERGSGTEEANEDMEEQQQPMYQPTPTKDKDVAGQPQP
# Sequence (P08195 102-630 partner): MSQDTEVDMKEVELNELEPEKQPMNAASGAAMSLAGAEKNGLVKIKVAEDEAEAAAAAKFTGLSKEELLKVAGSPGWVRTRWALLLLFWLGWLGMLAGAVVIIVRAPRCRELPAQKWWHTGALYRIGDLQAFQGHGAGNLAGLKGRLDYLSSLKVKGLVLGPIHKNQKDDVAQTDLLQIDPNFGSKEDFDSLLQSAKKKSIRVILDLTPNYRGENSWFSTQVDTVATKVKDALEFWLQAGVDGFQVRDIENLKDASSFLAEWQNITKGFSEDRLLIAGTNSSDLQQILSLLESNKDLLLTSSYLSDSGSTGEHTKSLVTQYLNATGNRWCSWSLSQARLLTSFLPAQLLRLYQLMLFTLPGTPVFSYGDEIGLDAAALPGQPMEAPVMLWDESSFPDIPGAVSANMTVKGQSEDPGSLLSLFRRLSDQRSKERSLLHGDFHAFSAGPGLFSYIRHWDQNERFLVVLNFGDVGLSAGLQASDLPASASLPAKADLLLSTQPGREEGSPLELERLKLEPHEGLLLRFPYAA
# PROTOCOL NOTES: [14C]L-alanine uptake inhibition test using human-LAT2 stably expressing HEK293 cell line
# TEST SETTINGS: racemic form; 1 μM [14C]L-alanine, 1 minute, Na+-free HBSS; read-out: 50% suppression concentration, [14C]L-alanine uptake
# Text: HEK293 cells stably expressing human LAT1 and LAT2 were produced, respectively. A shuttle vector DNA (LAT1: pcDNA3.1(+) -hLAT1, LAT2: pcDNA3.1(+) -hLAT2; expression vector pcDNA3.1 (+) was produced by Invitrogen Corp.) having ampicillin and neomycin resistance markers and having full-length cDNA of human LAT1 or LAT2 inserted under a promoter of CMV (cytomegalovirus) was constructed. […]
pIC50: −log10 of the molar value.
OBSERVED PROPERTY: pIC50

Consider the compound NC1(C(=O)O)CCc2ccc(Oc3ccc4ccccc4c3)cc2C1 (stereo not shown) and give its measured pIC50.
~6.00
